- PROTOCOL DESCRIPTION: Biodistribution and in vivo binding specificity in PC-3 tumor-bearing BALB/c nu/nu mice
- STATED CONDITIONS: mouse, carcass (whole sample), iv, total radioactivity; male BALB/c nu/nu mice with PC-3 xenografts, 45 pmol i.v., 3 h p.i.; read-out: Carcass uptake
MEASURED ENDPOINT: tissue uptake dose at 3 h (%ID)
All answers are understood in %ID, so give the number only.

Fill in: tissue uptake dose at 3 h of CC(C)C[C@H](NC(=O)C[C@H](O)[C@H](CC(C)C)NC(=O)[C@H](Cc1c[nH]cn1)NC(=O)CNC(=O)[C@@H](NC(=O)[C@H](C)NC(=O)[C@H](Cc1c[nH]c2ccccc12)NC(=O)[C@H](CCC(N)=O)NC(=O)[C@@H](Cc1ccccc1)NC(=O)COCCOCCNC(=O)CN1CCN(CC(=O)O)CCN(CC(=O)O)CC1)C(C)C)C(N)=O [[^18F]AlF-NOTA-P2-RM26] is ___
3.8

====

- PROTOCOL DESCRIPTION: Biodistribution and in vivo binding specificity in PC-3 tumor-bearing BALB/c nu/nu mice
- STATED CONDITIONS: male, BALB/c nu/nu, mouse, lung, iv, 45 pmol, total radioactivity, male BALB/c nu/nu mice with PC-3 xenografts, 45 pmol i.v., 6 h p.i.; read-out: Lung uptake
MEASURED ENDPOINT: tissue uptake at 6 h (%ID/g)
All answers are understood in %ID/g, so give the number only.

Fill in: tissue uptake at 6 h of CC(C)C[C@H](NC(=O)C[C@H](O)[C@H](CC(C)C)NC(=O)[C@H](Cc1c[nH]cn1)NC(=O)CNC(=O)[C@@H](NC(=O)[C@H](C)NC(=O)[C@H](Cc1c[nH]c2ccccc12)NC(=O)[C@H](CCC(N)=O)NC(=O)[C@@H](Cc1ccccc1)NC(=O)COCCOCCNC(=O)CN1CCN(CC(=O)O)CCN(CC(=O)O)CC1)C(C)C)C(N)=O [[^18F]AlF-NOTA-P2-RM26] is ___
0.11

====

- PROTOCOL DESCRIPTION: Biodistribution and in vivo binding specificity in PC-3 tumor-bearing BALB/c nu/nu mice
- STATED CONDITIONS: male, BALB/c nu/nu, mouse, liver, iv, 45 pmol, total radioactivity, male BALB/c nu/nu mice with PC-3 xenografts, 45 pmol i.v., 1 h p.i.; read-out: Liver uptake
MEASURED ENDPOINT: tissue uptake at 1 h

Fill in: tissue uptake at 1 h of CC(C)C[C@H](NC(=O)C[C@H](O)[C@H](CC(C)C)NC(=O)[C@H](Cc1c[nH]cn1)NC(=O)CNC(=O)[C@@H](NC(=O)[C@H](C)NC(=O)[C@H](Cc1c[nH]c2ccccc12)NC(=O)[C@H](CCC(N)=O)NC(=O)[C@@H](Cc1ccccc1)NC(=O)COCCOCCNC(=O)CN1CCN(CC(=O)O)CCN(CC(=O)O)CC1)C(C)C)C(N)=O [[^18F]AlF-NOTA-P2-RM26] is ___
1.9 %ID/g

====

- TARGET: murine GRPRs (Mus musculus, UniProt P21729)
- Construct: from tissue; host or cells: organs of male NMRI mice, in vivo (pancreas, stomach, small intestine and others)
- Sequence (P21729 whole entry): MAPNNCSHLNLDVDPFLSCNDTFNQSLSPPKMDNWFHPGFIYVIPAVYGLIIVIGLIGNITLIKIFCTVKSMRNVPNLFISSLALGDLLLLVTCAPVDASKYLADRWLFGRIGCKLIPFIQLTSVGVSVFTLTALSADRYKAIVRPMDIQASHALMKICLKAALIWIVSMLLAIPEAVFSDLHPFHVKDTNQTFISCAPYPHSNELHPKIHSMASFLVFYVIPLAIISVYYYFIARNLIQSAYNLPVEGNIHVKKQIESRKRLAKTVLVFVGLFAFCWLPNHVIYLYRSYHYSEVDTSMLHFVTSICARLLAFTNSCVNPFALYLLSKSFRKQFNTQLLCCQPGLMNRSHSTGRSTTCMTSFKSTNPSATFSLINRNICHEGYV
- PROTOCOL DESCRIPTION: Biodistribution and in vivo binding specificity in NMRI mice
- STATED CONDITIONS: small intestine, iv, total radioactivity, male NMRI mice, 45 pmol i.v., 1 h p.i., read-out: Small intestine uptake
MEASURED ENDPOINT: tissue uptake at 1 h (%ID/g)
All answers are understood in %ID/g, so give the number only.

Fill in: tissue uptake at 1 h of CC(C)C[C@H](NC(=O)C[C@H](O)[C@H](CC(C)C)NC(=O)[C@H](Cc1c[nH]cn1)NC(=O)CNC(=O)[C@@H](NC(=O)[C@H](C)NC(=O)[C@H](Cc1c[nH]c2ccccc12)NC(=O)[C@H](CCC(N)=O)NC(=O)[C@@H](Cc1ccccc1)NC(=O)COCCOCCNC(=O)CN1CCN(CC(=O)O)CCN(CC(=O)O)CC1)C(C)C)C(N)=O [[^18F]AlF-NOTA-P2-RM26] is ___
4
